- procedure details: soluble on expression in E. coli; label from the status in PepcDB or PDB records
property name: soluble on expression in E. coli

// known answers, use as guide
MSLSSTSHERLEVEPIDESSILFADDDHYTSDTVCLVTGGGSGIGRATALAMAANGVTAVATDIDADGLAEVADTAADLDLDGAVETVAGDLANDADIEAIVETAASHGTVRYLANIAGLQHIDAIEDFPMEKYDQMHDVMLRAPLALSKRVIPHIRGTDDGVGAIGNMASVHGHYVTSDKVAYNVSKFGLRGLTQSIAAEGGDGLRGFSISTGYVKTPLVVDQIPDTAEQRGISVDEVIDDVMLGQARIKEMMDPIDVANLFVFGFSRHANHLNGGDLLFDGGMTKTYEGHHHHHH not soluble
MGSDKIHHHHHHMIDPESLEALEAVVDAGSLSAAAGQLNKAVSAVGYHLRRLEEQIGVPLLDRSGYRLALTPEGKSVLAEGRPILERLRALGTFAERYHGGWEHQLRIVYDGALPAEVVIGAINALVEAGAPTHIELNVAYLGAVPFEFDRKQADVMIATAWEPRLDLIGHRLATLGFSLCCAAGHPLTMRTNVSLEELQRETELIIPGLAEDRSFDARHFRSRRILKVSDFNTKLIAIRRGLGFGWLPDYLASDLVRKGNLARVRLEGGNSYELQPVFALHRGAAPGRARQMLLDMLLLATWDTYVKPE not soluble
NGEEHEQTHRAIFRFVPRHEDELELEVDDPLLVELQAEDYWYEAYNMRTGARGVFPAYYAIEVTKEPEHMA soluble
MSLVMSMANKREPAPGWPIVSGEYVVGNPESCVGVVTLGSHGLEQACIDAGAAIAGPCHTENLGIEKVVANYISNPNIRFMILCGSEVQGHITGQCFKALWENGIGDDGGIIGAKGAIPFLENVNKEAVERFRRQIVEVVDLIDCEDIGKITQAIKECLSKDPGAIDEDPFIIELEGGKGGGEEEEGVIKPITPEMAIIESRMRLIGNEMCYNGLLAKWQAGYYNGKEGHHHHHH not soluble
GSHNATSGHEDMPVERILEAELAVEPKTESYGDMNMENSTNDPVTNICHAADKQLFTLVEWAKRIPHFSDLTLEDQVILLRAGWNELLIASFSHRSVSVQDGILLATGLHVHRSSAHSAGVGSIFDRVLTELVSKMKDMQMDKSELGCLRAIVLFNPDAKGLSNPSEVETLREKVYATLEAYTKQKYPEQPGRFAKLLLRLPALRSIGLKCLEHLFFFKLIGDTPIDTFLMEMLETPLQIT soluble

Q) Please report soluble on expression in E. coli for the following sequence: `MSQWHHPRSGWGRRRDFSGRSSAKKKGGNHIPERWKDYLPVGQRMPGTRFIAFKVPLQKSFEKKLAPEECFSPLDLFNKIREQNEELGLIIDLTYTQRYYKPEDLPETVPYLKIFTVGHQVPDDETIFKFKHAVNGFLKENKDNDKLIGVHCTHGLNRTGYLICIYLIDVEGVRPDDAIELFNRCRGHCLERQNYIEDLQNGPIRKNWNSSVPRSSDFEDSAHLMQPVHNKPVKQGPRYNLHQIQGHSAPRHFHTQTQSLQQSVRKFSENPHVYQRHHLPPPGPPGEDYSHRRYSWNVKPNASRAAQDRRRWYPYNYSRLSYPACWEWTQ`
A) soluble

Q) Please report soluble on expression in E. coli for the following sequence: `MGLWYRMLENQDLEEVITVRVQDPRVQNEGSWNSYVDYKIFLHTNSKAFTAKTSCVRRRYREFVWLRKQLQRNAGLVPVPELPGKSTFFGGSDEFIEKRRQGLQHFLEKVLQSVVLLSDSQLHLFLQSQLSVPEIEACVQGRGAMTVSDAILSYAMSNCGWAQEERQSTSHLAKGDQLNSCCFLPRSGRRSSPSPPLSEEKEQLETWAPVMDSEGPSSESPTLLPSSSLPACWDPARPEEGLSVSQPARRAVAADQAGPMEPTQLDTAWDK`
A) soluble

Q) Please report soluble on expression in E. coli for the following sequence: `MGSDKIHHHHHHMGTDPIEARFEQLNVWRNGDKRAPHKPLLILLALASWQRGAREMRFAECEQKLGELIREFGPAAKAVHPEYPFWRLQNDGLWVVEADQEMRTRQSNSDPLKSELRAAGARGHFFADVAEELERRPALIGRVAQRVLDAHFPETLHEDILAAVGLEVSEETESTTRRRRDPNFRNAVLQAYQYRCAVCELDLRIGSITVGLEAAHVKWHQARGPDAVHNGVALCSLHHKLFDLGAFHIGADRRILVSEQVHGTSRFEEVLLRHHGALALEPVRSEHKVLRDFVGWHFDQVFKKEARPAT`
A) not soluble

Q) Please report soluble on expression in E. coli for the following sequence: `MIEAVKPKVLATRLIPNVAPELAGQLGLAQYQRSIGMITCNIDDSTYVALDEATKKADVAVVYAKSFYAGAAHASGPRSGEVIGILAAANPADVRAGIDACIAYLENEAFFYSHDGGKTAWFPHTISSTGSYLSQIAGIPEGEPLAYLIAPPLEAIYGIDAALKAADVAMKVLYGPPTETNFGGALLTGTQSACRAACEDFQRAVIDVAENGMKY`
A) not soluble

Q) Please report soluble on expression in E. coli for the following sequence: `MAGDPMVRLNVKPTRMELNNLKERLTTAERGHKLLKDKRDELMRRFISLIRENNQLRKEVESYLIDNLKSFAVAKSLKNSQMVEELFSIPSKEIELFVEKENIMSVTVPRMHMNITSQNENSEYSYLSSNSEMDDVFATMNSLIYKLLRLAEVEKTCQLMADEIEKTRRRVNGLEYSIIPNLSETIHYIELKLEEAERANLVRIMKVKLEHHHHHH`
A) not soluble

Q) Please report soluble on expression in E. coli for the following sequence: `MKIALSFLFLTSTFSNAGKIGRLQSVAVSGQLNCLGKPAVGVRIDLMESDNNGEETGIIDDNDFMGYTYTDSAGFFNMSGSEVEISGIEPYVNIFHKCNDGLSPCQRQLRVDIPKSATASGPAPNETFSIGTLELSSRKVIGERRSCAYRNLTQTS`
A) not soluble

Q) Please report soluble on expression in E. coli for the following sequence: `SKVALITGVTGQDGSYLAEFLLEKGYEVHGIKRRASSFNTERVDHIYQDPHTCNPKFHLHYGDLSDTSNLTRILREVQPDEVYNLGAMSHVAVSFESPEYTADVDAMGTLRLLEAIRFLGLEKKTRFYQASTSELYGLVQEIPQKETTPFYPRSPYAVAKLYAYWITVNYRESYGMYACNGILFNHESPRRGETFVTRKITRAIANIAQGLESCLYLGNMDSLRDWGHAKDYVKMQWMMLQQEQPEDFVIATGVQYSVRQFVEMAAAQLGIKLRFEGTGVEEKGIVVSVTGHDAPGVKPGDVIIAVDPRYFRPAEVETLLGDPTKAHEKLGWKPEITLREMVSEMVANDLEAAKKHSLLKSHGYDVAIALES`
A) soluble
